Source listed as paper PMC6451107.

# Target or test system: MLE dsRBD1+2 K171A (Drosophila, UniProt P24785 1-264, K171A)
# Sequence (P24785 1-264 K171A): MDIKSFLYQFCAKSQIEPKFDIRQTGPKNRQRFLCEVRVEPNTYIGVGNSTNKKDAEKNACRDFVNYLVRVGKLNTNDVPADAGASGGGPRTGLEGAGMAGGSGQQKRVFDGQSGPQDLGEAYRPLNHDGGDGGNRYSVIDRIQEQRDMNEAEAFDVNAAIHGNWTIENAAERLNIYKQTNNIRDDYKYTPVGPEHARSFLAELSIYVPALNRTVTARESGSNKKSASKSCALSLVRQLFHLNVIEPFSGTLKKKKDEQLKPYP
# Assay procedure: fluorescence polarization; FP: 80 nM 3'-FAM RNA stock mixed 1:1 with protein, buffer D (composition not in material), 15 min, 20 C; EMSA: 1200 nM RNA stock mixed 1:1 with protein, buffer
# Condition label: protein: recombinant; tags: SUMO tag removed by ULP1; label: 3'-FAM; hairpin, 13 nt loop (C135-C147)
Readout name: pKd
Just the number, please; pKd means minus log10 of the concentration in mol/L.

Ask | Please look at this binder and report its pKd: R2H1 55mer (FAM) (structured_RNA) RNA: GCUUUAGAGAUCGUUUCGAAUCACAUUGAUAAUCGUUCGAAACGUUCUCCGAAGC
Reply | 5.34
